# Target Entity: Human renin (Homo sapiens, UniProt P00797)
# Sequence (P00797 67-406): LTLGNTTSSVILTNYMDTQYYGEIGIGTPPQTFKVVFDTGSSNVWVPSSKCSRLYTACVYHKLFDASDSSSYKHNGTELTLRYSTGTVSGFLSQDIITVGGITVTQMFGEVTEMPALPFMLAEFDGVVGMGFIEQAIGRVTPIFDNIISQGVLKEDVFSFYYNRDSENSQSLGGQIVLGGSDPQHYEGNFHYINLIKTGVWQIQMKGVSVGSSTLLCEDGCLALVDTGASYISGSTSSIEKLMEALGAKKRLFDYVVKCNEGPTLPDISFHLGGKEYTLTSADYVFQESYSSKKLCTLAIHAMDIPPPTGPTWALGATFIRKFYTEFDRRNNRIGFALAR
# Protocol Text: Human renin inhibition; angiotensin I formed from angiotensinogen quantified by EIA
# Condition Description: read-out: Human renin inhibitory activity, inhibitory activity (%) at 0.1 μM
Counter-ions that a name gives are not always drawn.
Would you mind telling me the reported inhibition at 0.1 µM of each entry?
Answers are plain numbers, in %.

Take a look at these entries with their results.
get_value(item= COCCCCc1c(C(=O)N(CC(C)C)[C@@H]2CNC[C@H](C(=O)N3CCOCC3)C2)nnn1-c1ccccc1F [Example 233, hydrochloride] , readout=inhibition at 0.1 µM) returns 97

Short answer for COCCCCn1c(C(=O)N(CC(C)C)[C@@H]2CNC[C@H](CO)C2)nc2ccccc21 [Example 40, dihydrochloride] : inhibition at 0.1 µM was 97

Item: COCCCCn1c(C(=O)N(CC(C)C)[C@@H]2CNC[C@H](C(N)=O)C2)nc2ccccc21 [Example 25, dihydrochloride] | inhibition at 0.1 µM: 98

Summary for this compound, COCCCCn1c(C(=O)N(CC(C)C)[C@@H]2CNC[C@H](C(=O)N3CCOCC3)C2)nc2ccc(F)cc21 [Example 12, dihydrochloride] : inhibition at 0.1 µM is 97

CC(C)CN(C(=O)c1nc2ccccn2c1COc1ccccc1)[C@@H]1CNC[C@H](C(=O)N2CCOCC2)C1 [Example 117, dihydrochloride] yielded inhibition at 0.1 µM of 98

Turning to the following compound.
According to the records, this compound COCCCCn1c(C(=O)N(CC(C)C)[C@@H]2CNC[C@H](C(O)COC)C2)nc2ccccc21 (stereo partly drawn) [Example 48, dihydrochloride] displays inhibition at 0.1 µM of 97
